Tested on: CAS-1;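 note: growth inhibition of CAS-1 cells, measured with a cell viability assay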
assay comment: cells
Assay type: functional, cell-based, Homo sapiens
condition details: Homo sapiens, CAS-1
Description: SANGER: Inhibition of human CAS-1 cell growth in a cell viability assay.
pIC50: −log10 of the molar value.
Recorded pIC50 by entry

>>> observed_result("CN(c1ncccc1CNc1nc(Nc2ccc3c(c2)CC(=O)N3)ncc1C(F)(F)F)S(C)(=O)=O [PF-00562271]")
"< 5.59"
>>> observed_result("CC(=O)O[C@@]12CO[C@@H]1C[C@H](O)[C@@]1(C)C(=O)[C@H](O)C3=C(C)[C@@H](OC(=O)[C@H](O)[C@@H](NC(=O)OC(C)(C)C)c4ccccc4)C[C@@](O)([C@@H](OC(=O)c4ccccc4)[C@H]21)C3(C)C [DOCETAXEL]")
"< 8.00"

Lab note: C=CCNC1=C2C[C@@H](C)C[C@H](OC)[C@H](O)[C@@H](C)/C=C(\C)[C@H](OC(N)=O)[C@@H](OC)/C=C\C=C(/C)C(=O)NC(=CC1=O)C2=O [TANESPIMYCIN] gave pIC50 of < 6.00

---

Recorded IC50 by entry
Test system: MFH-ino;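 note: growth inhibition of human MFH-ino cells, read out by a cell viability assay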
assay comment: cells
Format: functional, cell-based
condition details: Homo sapiens
Description: SANGER: Inhibition of human MFH-ino cell growth in a cell viability assay.
Respond numerically; units are nM and should not be typed.

>>> observed_result("Cn1cncc1[C@@](N)(c1ccc(Cl)cc1)c1ccc2c(c1)c(-c1cccc(Cl)c1)cc(=O)n2C")
815

Now turn to the next compound.
Readout IC50 for COc1cc([C@@H]2c3cc4c(cc3[C@@H](O[C@@H]3O[C@@H]5CO[C@@H](C)O[C@H]5[C@H](O)[C@H]3O)[C@H]3COC(=O)[C@H]23)OCO4)cc(OC)c1O [ETOPOSIDE] , test system MFH-ino, was 751

---

Recorded IC50 by entry
Tested on: KYSE-180;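 note: growth inhibition of KYSE-180 cells, read out with a cell viability assay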
assay comment: cells
Format: functional, cell-based, Homo sapiens
condition details: Homo sapiens, KYSE-180
Description: SANGER: Inhibition of human KYSE-180 cell growth in a cell viability assay.

>>> observed_result("Cn1cc(C2=C(c3ccc(Cl)cc3Cl)C(=O)NC2=O)c2ccccc21")
"> 10 µM"
>>> observed_result("Nc1ccn([C@@H]2O[C@H](CO)[C@@H](O)[C@@H]2O)c(=O)n1")
"0.565 µM"
>>> observed_result("CCOc1nc(NC(=O)Cc2cc(OC)ccc2OC)cc(N)c1C#N")
"> 10 µM"

Lab note: C=CCc1cccc(/C=N/NC(=O)CN2CCN(Cc3ccccc3)CC2)c1O gave IC50 of > 2.56 µM

Lab note: O=C(NOCC1CC1)c1ccc(F)c(F)c1Nc1ccc(I)cc1Cl gave IC50 of > 10 µM

Lab note: O=C(c1cc(Cc2n[nH]c(=O)c3ccccc23)ccc1F)N1CCN(C(=O)C2CC2)CC1 gave IC50 of > 5 µM

Lab note: Cc1cnc(-c2cnc(NCCNc3ccc(C#N)cn3)nc2-c2ccc(Cl)cc2Cl)[nH]1 gave IC50 of 1.73 µM

Lab note: O=c1cc(-c2cccc3c2Sc2ccccc2S3)oc(N2CCOCC2)c1 gave IC50 of > 10 µM

---

Test system: THP-1;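 note: growth inhibition of THP-1 cells, read out via a cell viability assay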
assay comment: cells
Type: functional, cell-based
condition details: Homo sapiens
Description: SANGER: Inhibition of human THP-1 cell growth in a cell viability assay.
Recorded IC50 by entry

Record excerpt, results attached:
>>> observed_result("CCC1=C[C@@H]2CN(C1)Cc1c([nH]c3ccccc13)[C@@](C(=O)OC)(c1cc3c(cc1OC)N(C)[C@H]1[C@@](O)(C(=O)OC)[C@H](OC(C)=O)[C@]4(CC)C=CCN5CC[C@]31[C@@H]54)C2")
"> 0.064 µM"
>>> observed_result("COc1cc([C@@H]2c3cc4c(cc3[C@@H](O[C@@H]3O[C@@H]5CO[C@@H](C)O[C@H]5[C@H](O)[C@H]3O)[C@H]3COC(=O)[C@H]23)OCO4)cc(OC)c1O [ETOPOSIDE]")
"> 16 µM"

Lab note: CO[C@H]1C[C@@H]2CC[C@@H](C)[C@@](O)(O2)C(=O)C(=O)N2CCCC[C@H]2C(=O)O[C@H]([C@H](C)C[C@@H]2CC[C@@H](O)[C@H](OC)C2)CC(=O)[C@H](C)/C=C(\C)[C@@H](O)[C@@H](OC)C(=O)[C@H](C)C[C@H](C)/C=C/C=C/C=C/1C gave IC50 of > 0.1 µM

Lab note: CN(c1ncccc1CNc1nc(Nc2ccc3c(c2)CC(=O)N3)ncc1C(F)(F)F)S(C)(=O)=O gave IC50 of > 2.56 µM

Measured values drawn from ChEMBL document CHEMBL1201861 for this set.
